hROCK1 (Homo sapiens) measurements of IC50, listed per entry.
Sequence (Q13464 whole entry): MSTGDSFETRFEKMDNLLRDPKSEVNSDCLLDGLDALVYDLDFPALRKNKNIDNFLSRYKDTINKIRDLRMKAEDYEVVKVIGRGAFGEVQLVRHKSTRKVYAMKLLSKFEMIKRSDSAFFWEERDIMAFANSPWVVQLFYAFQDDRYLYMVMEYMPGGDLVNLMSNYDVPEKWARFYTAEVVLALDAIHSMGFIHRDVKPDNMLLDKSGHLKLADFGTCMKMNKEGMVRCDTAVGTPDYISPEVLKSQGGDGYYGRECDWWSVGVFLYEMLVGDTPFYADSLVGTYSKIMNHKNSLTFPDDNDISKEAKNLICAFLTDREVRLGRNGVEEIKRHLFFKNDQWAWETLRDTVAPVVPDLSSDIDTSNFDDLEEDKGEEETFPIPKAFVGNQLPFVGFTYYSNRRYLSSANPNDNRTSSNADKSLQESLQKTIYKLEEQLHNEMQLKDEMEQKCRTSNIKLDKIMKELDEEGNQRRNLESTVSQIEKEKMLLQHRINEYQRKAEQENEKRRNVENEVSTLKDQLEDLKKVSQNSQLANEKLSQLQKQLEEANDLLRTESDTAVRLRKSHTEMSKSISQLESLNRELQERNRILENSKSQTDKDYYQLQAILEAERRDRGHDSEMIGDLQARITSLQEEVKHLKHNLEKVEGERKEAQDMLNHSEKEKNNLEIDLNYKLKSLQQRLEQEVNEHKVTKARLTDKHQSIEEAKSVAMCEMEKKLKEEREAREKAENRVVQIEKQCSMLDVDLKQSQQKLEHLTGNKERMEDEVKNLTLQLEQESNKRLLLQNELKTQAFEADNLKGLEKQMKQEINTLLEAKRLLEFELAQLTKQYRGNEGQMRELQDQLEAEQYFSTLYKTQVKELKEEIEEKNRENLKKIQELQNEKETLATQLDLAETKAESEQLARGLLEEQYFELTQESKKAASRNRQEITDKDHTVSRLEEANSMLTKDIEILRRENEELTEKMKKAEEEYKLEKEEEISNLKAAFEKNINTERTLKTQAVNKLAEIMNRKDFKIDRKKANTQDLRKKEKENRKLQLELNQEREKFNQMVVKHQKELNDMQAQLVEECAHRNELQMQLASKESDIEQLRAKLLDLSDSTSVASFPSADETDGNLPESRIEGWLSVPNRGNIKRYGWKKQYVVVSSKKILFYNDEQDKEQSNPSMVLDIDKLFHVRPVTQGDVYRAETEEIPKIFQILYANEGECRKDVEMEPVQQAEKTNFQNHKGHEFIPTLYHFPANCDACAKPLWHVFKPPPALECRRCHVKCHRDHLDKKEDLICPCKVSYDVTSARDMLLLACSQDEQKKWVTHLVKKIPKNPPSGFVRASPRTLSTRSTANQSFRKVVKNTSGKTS

Here is how some molecules turned out for IC50.
Molecule	IC50
CCS(=O)(=O)N1CC(CC#N)(n2cc(-c3ncnc4[nH]ccc34)cn2)C1	0.019 µM
Cc1cc(Nc2ncnc3ccc(NC4=NC(C)(C)CO4)cc23)ccc1Oc1ccn2ncnc2c1	51.5 µM
COc1cc2nccc(Oc3ccc(NC(=O)Nc4cc(C)on4)c(Cl)c3)c2cc1OC	12.9 µM

Now examine the next entry.
Answer with the recorded IC50 of O=C(CCNNC(=O)c1ccncc1)NCc1ccccc1 [Nialamide (40), nialamide] only. 18.8 µM

* * *

hROCK2 (Homo sapiens, UniProt O75116) measurements of pIC50, listed per entry.
Sequence (O75116 whole entry): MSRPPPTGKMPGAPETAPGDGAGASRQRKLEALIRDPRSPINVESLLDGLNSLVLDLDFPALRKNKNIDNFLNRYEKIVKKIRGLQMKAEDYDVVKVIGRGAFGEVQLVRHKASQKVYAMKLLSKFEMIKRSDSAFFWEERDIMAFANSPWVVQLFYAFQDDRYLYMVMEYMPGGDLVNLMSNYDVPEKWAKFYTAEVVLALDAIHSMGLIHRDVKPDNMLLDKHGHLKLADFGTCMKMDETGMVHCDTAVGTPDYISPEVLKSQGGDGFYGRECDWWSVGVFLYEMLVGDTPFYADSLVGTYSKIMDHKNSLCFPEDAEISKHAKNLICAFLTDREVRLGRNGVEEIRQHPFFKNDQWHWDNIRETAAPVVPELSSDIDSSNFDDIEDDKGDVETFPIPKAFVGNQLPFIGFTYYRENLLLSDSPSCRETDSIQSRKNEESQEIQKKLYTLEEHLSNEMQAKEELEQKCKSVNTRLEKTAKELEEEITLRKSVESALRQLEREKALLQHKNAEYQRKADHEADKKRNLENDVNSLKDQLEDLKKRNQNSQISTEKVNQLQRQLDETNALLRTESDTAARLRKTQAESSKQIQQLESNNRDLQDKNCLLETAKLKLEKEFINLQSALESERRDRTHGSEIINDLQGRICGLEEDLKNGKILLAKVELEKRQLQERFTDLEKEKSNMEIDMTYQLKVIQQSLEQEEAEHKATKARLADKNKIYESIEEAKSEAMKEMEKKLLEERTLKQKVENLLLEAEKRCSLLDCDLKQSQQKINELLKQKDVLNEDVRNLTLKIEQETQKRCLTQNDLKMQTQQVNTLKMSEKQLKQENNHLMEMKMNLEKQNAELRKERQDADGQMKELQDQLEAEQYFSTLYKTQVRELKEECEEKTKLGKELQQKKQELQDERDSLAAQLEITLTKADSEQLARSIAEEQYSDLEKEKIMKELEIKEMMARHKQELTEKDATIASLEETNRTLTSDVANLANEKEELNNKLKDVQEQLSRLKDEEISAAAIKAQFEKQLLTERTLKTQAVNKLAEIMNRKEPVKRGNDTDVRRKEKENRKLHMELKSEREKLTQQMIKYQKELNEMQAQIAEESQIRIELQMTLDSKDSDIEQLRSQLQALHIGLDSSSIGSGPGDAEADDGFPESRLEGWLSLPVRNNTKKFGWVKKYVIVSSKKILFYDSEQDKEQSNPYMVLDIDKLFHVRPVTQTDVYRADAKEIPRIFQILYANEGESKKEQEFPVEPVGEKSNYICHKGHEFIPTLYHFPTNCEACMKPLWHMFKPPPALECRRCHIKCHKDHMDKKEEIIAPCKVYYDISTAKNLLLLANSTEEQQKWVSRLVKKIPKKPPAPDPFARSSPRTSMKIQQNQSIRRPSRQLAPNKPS
Give only the number. pIC50 is defined as minus log10 of concentration in molar units.

Molecule	Experimental Value
O=C(CCNNC(=O)c1ccncc1)NCc1ccccc1 [Nialamide (40), nialamide]	4.53

Answer with the recorded pIC50 of `COc1cc2nccc(Oc3ccc(NC(=O)Nc4cc(C)on4)c(Cl)c3)c2cc1OC` only. 6.07

Answer with the recorded pIC50 of `Cc1cc(Nc2ncnc3ccc(NC4=NC(C)(C)CO4)cc23)ccc1Oc1ccn2ncnc2c1` only. 4.73

Answer with the recorded pIC50 of `CCS(=O)(=O)N1CC(CC#N)(n2cc(-c3ncnc4[nH]ccc34)cn2)C1` only. 7.96
